Experiment: Antioxidant activity assessed as DPPH radical scavenging activity after 20 mins by spectrophotometric method
Assay type: functional
endpoint_name: IC50 (µM)
Express your answer in µM, writing the number without its unit.

Sample answers from the record:
compound: CC(NNc1ccc([N+](=O)[O-])cc1)=C1C(=O)N(C)C(=O)N(C)C1=O
IC50 [µM]: 23.9
//
compound: CC(NNc1ccccc1)=C1C(=O)N(C)C(=O)N(C)C1=O
IC50 [µM]: 22.6
//
compound: CC(NNc1ccccc1)=C1C(=O)NC(=O)NC1=O
IC50 [µM]: 23.9

Alright, here's another compound for you.
Ask | Fill in the blank: the reported IC50 of Cc1c(C)c2c(c(C)c1O)CCC(C)(C(=O)O)O2 (centres undefined) is ____.
Reply | 33.8

###

Assay: Antioxidant activity assessed as DPPH radical scavenging activity at 30 uM after 20 mins by spectrophotometric method relative to control
Format: functional
Activity values by entry
Give just the number in %; leave the unit off.

Example entries and their recorded answers appear below.
molecule: NC(=O)NC=C1C(=O)NC(=S)NC1=O
observed_value: 5.26
//
molecule: O=C1NC(=O)C(=CNc2ccccc2C(=O)O)C(=O)N1
observed_value: 1.75
//
molecule: CC(=O)C1C(=O)NC(=O)NC1=O
observed_value: -6.91
//
molecule: CC(NNc1ccc([N+](=O)[O-])cc1)=C1C(=O)N(C)C(=O)N(C)C1=O
observed_value: 71.2
//
molecule: N#CC(c1ccc(Br)cc1)c1c([O-])[nH]c(=S)[nH]c1=O.[Na+] (configuration not stated)
observed_value: -9.22

Ask | If you can, please state the reported Activity value of `CN1C(=O)C(=CNc2ccccc2C(=O)O)C(=O)N(C)C1=O` .
Reply | 3.37

Ask | Which Activity value belongs to `CN1C(=O)C(=CNc2cc([N+](=O)[O-])ccc2Cl)C(=O)N(C)C1=O` ?
Reply | -0.82

Ask | Would you mind telling me what Activity value was observed for `O=C1NC(=O)C(=Cc2ccccc2[N+](=O)[O-])C(=O)N1` ?
Reply | -0.9

Ask | Item `CN1C(=O)C(=CNC(N)=O)C(=O)N(C)C1=O` has what recorded Activity?
Reply | 2.1

Ask | Entry under review: `CC(NNc1ccccc1)=C1C(=O)N(C)C(=O)N(C)C1=O` . Reported Activity?
Reply | 77.1

Ask | Dear colleague, I am looking for the recorded Activity of the following molecule: `O=C1NC(=S)NC(=O)C1=CNc1cc([N+](=O)[O-])ccc1Cl`
Reply | -4.31

Ask | Entry `CC(NNc1ccc([N+](=O)[O-])cc1[N+](=O)[O-])=C1C(=O)NC(=O)NC1=O` : reported Activity = ?
Reply | 17.6

Ask | Given `NC(S)=NC=C1C(=O)NC(=O)NC1=O` , state its recorded Activity.
Reply | 6.73

Ask | Form field: reported Activity of `O=C1NC(=S)NC(=O)C1=CNc1ccccc1[N+](=O)[O-]`
Reply | -12.5

Ask | Param item = `CC(=O)C1C(=O)N(c2ccccc2)C(=S)N(c2ccccc2)C1=O` ; retrieve measured Activity.
Reply | -8.55

Ask | What measured Activity goes with `COc1ccc(CC2C(=O)NC(=O)NC2=O)cc1` ?
Reply | 10.4

Ask | Which Activity value is on record for `NC(=S)NC=C1C(=O)NC(=S)NC1=O` ?
Reply | 3.37

Ask | What value of measured Activity is listed for Cc1c(C)c2c(c(C)c1O)CCC(C)(C(=O)O)O2 (configuration not stated) ?
Reply | 70

Ask | Param item = `Oc1ncnc2[nH]ncc12` ; retrieve measured Activity.
Reply | -6.02

Ask | What value of measured Activity is listed for `NC(=S)NC=C1C(=O)N(c2ccccc2)C(=S)N(c2ccccc2)C1=O` ?
Reply | 23.1

Origin of values: ChEMBL document CHEMBL4138236
